test system: RXF 631; assay: NCI tumour cell line growth inhibition, 48 h
Activity calls are given as the source filed them. Cut-off read from the data, not from the text of the source: active = GI50 up to about 1.1 µM and inactive = higher.
Allowed answers: active, inactive

# count of solved cases: 7
CN(C)[C@@H]1C(O)=C(C(=O)NCN2CCN(C(=N)NC(=N)N)CC2)C(=O)[C@@]2(O)C(O)=C3C(=O)c4c(O)cccc4[C@@](C)(O)[C@H]3C[C@@H]12 :: active
FC(F)(F)c1cc(C2SCc3nc4ccccc4n32)cc(C(F)(F)F)c1 (stereo not drawn) :: inactive
Cc1ccc(S(=O)(=O)NC(C)C(=O)O)cc1 (stereo not drawn) :: inactive
Clc1ccc(Cl)c2[s+]snc12 :: inactive
N#CC1(C2SCC[S+]2[O-])C2=C(C(=O)c3ccccc3C2=O)N2CCCC21 (stereo not drawn) :: inactive
Clc1ccc2c(c1)[nH]c1c2nc2ccccn21 :: inactive
Cc1ccc(C2(O)CC(c3ccc([N+](=O)[O-])o3)=NN2C(=O)COc2ccccc2Cl)cc1 (stereo not drawn) :: inactive

Let's switch to this molecule now.
Qu. Please state the recorded outcome for this molecule: CN(C)C(=N)NC(=S)N(C)C
Ans. inactive

Hello, the source for this data is ChEMBL document CHEMBL1201862, in case you need it.
